Measured growth by item
Test system: RPMI-8226 leukemia
Test Protocol: NCI-60 one-dose screen, 48 h (100 = growth as untreated, 0 = no growth, -100 = all killed)
Condition Summary: 10 µM unless noted
Compounds without any hit were thinned out: in the full panel of roughly 83,000, 20% have a hit.
Could you give me the number in %? Just the number is fine.

See these solved cases before continuing.
| Molecule | growth / % |
| --- | --- |
| Nc1nnnc2nc[nH]c12 | -11.4 |
| CC1(C)[C@H](O)[C@H](F)C[C@@]2(C)Oc3ccc(C(=O)Nc4ccc5c(c4)NC(=O)C54CCN(CCCCC#N)CC4)cc3C[C@H]12 | -12.6 |
| Cn1cc(-c2csc(-c3cn(CCCCN4CCCCC4)c4ccc(F)cc34)n2)c2cccnc21 | 1.18 |
| Brc1ccc2c(c1)c(-c1nc(-c3c[nH]c4ncccc34)cs1)cn2CCN1CCOCC1 | 40.1 |

Form field growth, entry CC(C)OC(=O)[C@H](C)NP(=O)(Oc1ccccc1)C1CCCN(O)C1=O (stereo not given in full) : 101

Origin of values: PubChem BioAssay (NCI)
